Data origin: paper PMC9655037

- Test Name: Tissue distribution of TET after a single i.t. administration in normal and LPS-treated mice
- Assay Setup: BALB/c, mouse, brain, inhaled or intranasal, 15 mg/kg, MRT, normal mice; 15 mg/kg i.t.
Attribute Measured: MRT (h)
Response body: numeric value in h, unit text excluded.

Any idea what its MRT is? The compound is COc1ccc2cc1Oc1ccc(cc1)C[C@H]1c3cc(c(OC)cc3CCN1C)Oc1c(OC)c(OC)cc3c1[C@H](C2)N(C)CC3
56.8

* * *

- Test Name: Tissue distribution of TET after a single i.t. administration in normal and LPS-treated mice
- Assay Setup: BALB/c, mouse, in vivo, inhaled or intranasal, 15 mg/kg, AUC(0-t), LPS-treated mice; 15 mg/kg i.t.; spleen
Attribute Measured: AUC(0-t) (µg·h/mL)
Your answer should be a plain number; it is taken to be in µg·h/mL.

Returns the measured AUC(0-t) for the input molecule. Input: COc1ccc2cc1Oc1ccc(cc1)C[C@H]1c3cc(c(OC)cc3CCN1C)Oc1c(OC)c(OC)cc3c1[C@H](C2)N(C)CC3
9420
